target: HLA-A2.1 MHC class I molecules on T2 cells (human); test: T2 cells pulsed with peptide, anti-HLA-A2.1 flow cytometry; Brefeldin A treatment: 0 hr
Label YES for high-side binding score (HLA-A2.1 fluorescence on T2 cells) (at or above 500) and NO for low-side binding score (HLA-A2.1 fluorescence on T2 cells) (below it).

BINDER: KLMSPKLYV (Synthetic nonamer) [CD19 peptide KLMSPKLYV (SEQ ID NO: 4)]
LABEL: YES

BINDER: LLFFLLFLV [CD19 peptide LLFFLLFLV (SEQ ID NO: 5)]
LABEL: NO

BINDER: SHFLKMESL (Synthetic nonamer) [CD20 peptide SHFLKMESL (SEQ ID NO: 11)]
LABEL: NO

BINDER: SLFLGILSV (Synthetic nonamer) [CD20 peptide SLFLGILSV (SEQ ID NO: 6)]
LABEL: YES

BINDER: TLAYLIFCL (Synthetic nonamer) [CD19 peptide TLAYLIFCL (SEQ ID NO: 2)]
LABEL: YES

BINDER: AISGMILSI (Synthetic nonamer) [CD20 peptide AISGMILSI (SEQ ID NO: 7)]
LABEL: NO

Origin of the recorded values: patent US20050048071A1
